outcome-measure: melting point (°C)

Solved entries:
CCCCC(=O)NN	60
CCCCNCC(O)c1ccc(O)cc1 (stereo not given)	124
CNC(=O)ON=C(C)C(C)S(C)(=O)=O (stereo not given)	87
Cc1cccc(N(C)C(=S)Oc2ccc3ccccc3c2)c1	111
Nc1ccc2cc(N)ccc2c1	213

I. C=C1C(C)CCC2(C)C3=C(C(=O)C4(CC4C)C(OC(C)=O)C3=O)C(OC(C)=O)C(O)C12 (stereo not given)
II. Cc1ccccc1N=Nc1c(N)ccc2ccccc12
Decide: I or II , by lowest recorded melting point. Kindly give the label for the entry you pick.
II
(II: 126 °C, I: 233 °C)

I. COc1cccc2cccnc12
II. CCOC(=O)CC[C@H](NC(=O)c1ccc(N)cc1)C(=O)OCC
// compare: I vs II , metric melting point, want the smaller Choose, then provide that item's label.
I

a. CCC1(O)C(=O)OCc2c1cc1n(c2=O)Cc2cc3c(CN(C)C)c(O)ccc3nc2-1 (stereo not given)
b. Clc1cccc2ncccc12
Name the one with the greater melting point value, either a or b as given. Kindly state the label of the option you pick.
a

====

outcome-measure: melting point (°C)

O=CCCl	-16.3

1. O=C(O)c1cccc(S(=O)(=O)Nc2ccccc2)c1
2. Cc1ccccc1NC(=O)c1ccccc1
3. CCC(=O)C(C)(C)C
Hey, quick one: sort these by melting point, low to high? Write the labels in rank order as requested.
3, 2, 1

====

outcome-measure: melting point (°C)

COc1cc(NC(=S)Nc2ccc(Br)cc2)c(C(c2ccc(C)o2)c2ccc(C)o2)cc1OC	167
COCCOc1ccccc1S(=O)(=O)NC(=O)Nc1nc(OC)nc(OC)n1	130
CCCCC(C=O)CC (stereo unspecified)	-76

P. OCCC(F)(F)C(F)(F)C(F)(F)C(F)(F)F
Q. CCC(=O)c1ccc2ccccc2c1
R. CC1CCOS(=O)O1 (stereo unspecified)
S. CCCCCCCCn1c(=O)c2cc3c(OC)c4cc5c(=O)n(CCCCCCCC)c(=O)c5cc4c(OC)c3cc2c1=O
// ranking: key=melting point, reverse=True When ranking, write the labels in the order the request describes.
S, Q, R, P

====

outcome-measure: melting point (°C)

Please review the following examples before continuing.
COC(=O)c1ccc(Br)c(C)c1	42
[N-]=[N+]=Nc1ccc(Br)cc1	20
CCCCOC(=O)c1ccccc1	-22.4
c1cc2c3c(c4ccc5ccccc5c4cc3c1)CC2	174
O=C(O)C(O)c1ccc(F)cc1F (configuration not stated)	123
C[Si](C)(C)C1c2ccccc2-c2ccccc21	96.5
NC(=O)C(Br)CBr (configuration not stated)	133

a. Cn1c(Cl)cc(=O)n(C)c1=O
b. CC(Cc1cc(=O)c2c3c(c4ccccc4c2o1)OC1CC(=O)OC31)O[Si](C)(C)C(C)(C)C (configuration not stated)
From the items above, decide which of a and b has the lower melting point reading. Response format: the label of the selected entry.
a
(a: 110 °C, b: 188 °C)

====

outcome-measure: melting point (°C)

COc1ccc(C=CC(=O)Oc2ccc(C=CC(=O)c3ccccc3)cc2)cc1	158
O=C1c2ccccc2C(=O)c2c(O)cccc21	194
CC(=O)NC(Cc1c[nH]c2ccccc12)C(N)=O (stereo not drawn)	195
ClCc1cc(Cl)cc(Cl)c1	36
ON=Cc1cccc2c(Br)cccc12	134
Cc1cc(C)n(C(=O)CC#N)n1	120
Cc1cc([N+](=O)[O-])cc(Cl)c1N	175
CC(=O)c1cccc(O)c1	96

1. Cc1cc(=O)oc(C)c1C(=O)Oc1cccc(Cl)c1
2. O=C(O)c1ccc(C(=O)O)nc1
# query: argmin of melting point over 1 and 2 I would appreciate it if you answered with the label of your choice.
1
(1: 96 °C, 2: 254 °C)

====

outcome-measure: melting point (°C)

Some entries whose results are on file:
O=C=Nc1cc([N+](=O)[O-])ccc1Cl	94
Cn1c(/C(C#N)=N/Nc2c(Br)cc(Br)cc2Br)nc2ccccc21	180
O=C1NC(=O)C(=Cc2ccc(-c3ccccc3)o2)C(=O)N1	270
O=C(OC(=O)C(Cl)Cl)C(Cl)Cl	29

a. Cc1ccc(N)cc1I
b. Cc1cccc(C(C)C)c1O
Which value of melting point is greater, the one for a or the one for b ? Please identify the chosen entry by its label.
a

====

outcome-measure: melting point (°C)

Previously resolved entries follow.
Cc1c(C)c(CCl)c(C)c(C)c1CCl	194
Cc1cc2ncn(C3OC(CO)C(O)C3O)c2cc1C (configuration not stated)	198
CC(C)(C#N)Nc1nc(Cl)nc(NC2CC2)n1	170
Brc1ccc(-c2c(Br)c(Br)c(Br)c(Br)c2Br)c(Br)c1Br	225

A. CC1(C)CC(=O)[C@]2(C)C=C[C@H]1N(c1ccccc1)O2
B. C1=CCCCCCCCCCC1
Smaller melting point value? Options are A and B Label of pick, please.
B

====

outcome-measure: melting point (°C)

Known melting point results, listed for orientation:
CC#CC1(O)CCC2C3CC(C)C4=CC(=O)CCC4(C)C3CCC21C (configuration not stated)	102
CCOC(=O)C(=Cc1cc(N)cc(C=C(C(=O)OCC)C(=O)OCC)c1)C(=O)OCC	174
O=C(c1cccc2ccccc12)C(Br)c1ccccc1 (configuration not stated)	64
ClC1=C(Cl)C2(Cl)C3C4C=CC(C4)C3C1(Cl)C2(Cl)Cl (configuration not stated)	240

P. CCCCCCCCCCCCCCCCC(CCC)c1ccccc1 (configuration not stated)
Q. O=C(O)Cc1cccc(Cl)c1Cl
Compare reported melting point values for P and Q . Which is lower? Let me know the label of the one you choose.
P
(P: 31.4 °C, Q: 134 °C)

P. Cc1ccc(Cl)nn1
Q. CSc1cc2c(c3c1CCc1ccccc1-3)c(=O)n(-c1ccccc1)n2C
R. CC(C)c1ccccc1C(C)C
Which order do these items take when sorted by rising melting point? List them. Give me the labels in the order the question wants.
R, P, Q
(R: -57 °C, P: 57 °C, Q: 181 °C)

a. COc1cc(O)c(C=O)c(OC)c1
b. c1ccc2c(c1)ccc1ccc3ccc4ccc5cccnc5c4c3c12
c. CCOC(=O)c1nn(-c2ccc(C)cc2)c(C)c1C(=O)c1noc(-c2ccc([N+](=O)[O-])cc2)c1S(=O)(=O)c1ccccc1
d. COC(=O)C1(S(=O)(=O)c2ccc(Cl)cc2)CC1
Rank descending by melting point. Put the labels in the requested order and write them down.
b, c, d, a

P. COc1ccc(Cl)nn1
Q. O=C(O)[C@H]1CC[C@H](C(=O)O)CC1
Which value of melting point is greater, the one for P or the one for Q ? Response format: the label of the selected entry.
Q
(Q: 312 °C, P: 91 °C)

a. CC(=O)C1=C(C)NC(=O)NC1c1ccccc1 (configuration not stated)
b. COC(=O)[C@H]1C[C@H](NC(=O)OC(C)(C)C)[C@@H](O)C1
c. O=C(O)CCc1ccc(O)c(O)c1
d. FC(F)(F)c1cccc(Br)n1
Descending sort on melting point required. Note for the reader: the ranking is given by listing the labels in the order requested.
a, c, b, d
(a: 238 °C, c: 138 °C, b: 71.2 °C, d: 49.5 °C)

I. Cc1ccc(C(=O)O)cc1C(F)(F)F
II. CC=NO
Which of the two items, I and II , has the greater recorded melting point? Give the chosen item's label as your response.
I
(I: 177 °C, II: 45 °C)

P. C=C(NC(C)=O)C(=O)OC
Q. COc1ccc(C(C(=O)NCc2ccccc2)N(Cc2ccc(C)o2)C(=O)CNC(=O)OC(C)(C)C)cc1OC (configuration not stated)
Lab note: record which item had the higher melting point, P or Q . Select an item and report its label.
Q
(Q: 177 °C, P: 50 °C)

====

outcome-measure: melting point (°C)

I. CC(=O)Oc1ccccc1C(=O)Cl
II. COc1cc(CC(=O)O)cc(OC)c1
III. FC(Cl)=C(F)Cl
Order by melting point, ascending. The response must list the labels following the requested ordering.
III, I, II
(III: -130 °C, I: 49 °C, II: 103 °C)

I. CCCCCCCCOc1ccc(C(=O)OC)cc1
II. Cc1nc2ccccc2nc1C
Between item I and item II , which reported melting point is smaller? Select an item and report its label.
I
(I: 35 °C, II: 105 °C)

====

outcome-measure: melting point (°C)

N#CC(O)c1ccccc1 (stereo not drawn)	-10
N#C/C(=N\Nc1ccc(O)cc1)c1nc2ccccc2[nH]1	255
CCCOCC(C)O (stereo not drawn)	-80
CC=C(OC)C(=O)O	58

a. Oc1c(I)cc(Cl)c2cccnc12
b. OCCCCCCC(F)(F)C(F)(F)C(F)(F)C(F)(F)C(F)(F)C(F)(F)C(F)(F)C(F)(F)F
Which has the higher melting point, a or b ? To answer, give the label that identifies your chosen option.
a
